B1: INTS3 (parent)
chain: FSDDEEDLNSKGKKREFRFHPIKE

- Variants of: B1
- test-description: protein stability index of a GFP-peptide fusion (GPS, HEK-293T) (PSI 1-6); higher = more stable;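 further: lentivirally expressed fusions sorted by FACS into six bins by GFP to DsRed ratio, PSI derived from sequencing read proportions per bin multiplied by bin number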
- condition-parameters: c terminus: a fixed tail appended
property-measured: protein stability index
One number for each entry.

Examples with answers:
>  <sequence-data>
FGDDEEDLNSKGKKREFRFHPIKE [S2G]

>  <data-value>
3.22

$$$$
>  <sequence-data>
FSDDEEPLNSKGKKREFRFHPIKE [D7P]

>  <data-value>
2.18

$$$$
>  <sequence-data>
FSDDEGDLNSKGKKREFRFHPIKE [E6G]

>  <data-value>
2.7

$$$$

Please look at the items below and tell me protein stability index for each one, in order.
1. FSDDEEDLNSKGKKPEFRFHPIKE [R15P]
2. FSDDEEDLNSGGKKREFRFHPIKE [K11G]
3. FSDDEEDLNSKGKKREFRFHPISE [K23S]
4. FSDDEFDLNSKGKKREFRFHPIKE [E6F]

Result:
[2.6, 3.02, 3.19, 2.13]

Please look at the items below and tell me protein stability index for each one, in order.
1. FSQDEEDLNSKGKKREFRFHPIKE [D3Q]
2. FSDDEEDLNSKGHKREFRFHPIKE [K13H]
3. FSDSEEDLNSKGKKREFRFHPIKE [D4S]
4. FSDDEEDLNSKGKKREFCFHPIKE [R18C]
5. FSDDEEDLNSKGKKREFNFHPIKE [R18N]

Result:
[2.58, 2.31, 2.75, 4.57, 5.14]

Please look at the items below and tell me protein stability index for each one, in order.
1. FSDDLEDLNSKGKKREFRFHPIKE [E5L]
2. TSDDEEDLNSKGKKREFRFHPIKE [F1T]
3. FSDDEEDLNSKGKKREFQFHPIKE [R18Q]

Result:
[2.55, 3.05, 5.2]

All values here come from the supplement of paper PMC10567573.
